targetEntity: tiTac3Ra (Oreochromis niloticus)
Sequence (A0A075QPN8 entry or part of it): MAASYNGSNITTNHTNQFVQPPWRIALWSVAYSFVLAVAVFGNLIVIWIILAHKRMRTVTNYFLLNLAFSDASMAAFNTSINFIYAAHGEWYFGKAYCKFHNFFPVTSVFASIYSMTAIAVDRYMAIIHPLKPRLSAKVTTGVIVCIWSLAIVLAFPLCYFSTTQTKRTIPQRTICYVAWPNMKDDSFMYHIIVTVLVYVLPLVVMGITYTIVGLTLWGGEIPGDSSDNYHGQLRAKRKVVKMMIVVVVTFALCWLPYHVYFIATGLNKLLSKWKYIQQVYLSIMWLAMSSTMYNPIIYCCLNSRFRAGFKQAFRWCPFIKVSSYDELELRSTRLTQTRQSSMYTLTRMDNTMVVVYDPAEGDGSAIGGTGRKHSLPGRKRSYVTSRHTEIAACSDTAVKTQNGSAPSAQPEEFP
testProtocol: CRE-Luc antagonist assay, wild-type receptor, COS-7
Assay type: cell-based, tilapia (Oreochromis niloticus)
testSettings: 10 nM tiNKF, antagonist 0.001–1000 μM added 10 min before peptide, COS-7, CRE-Luc; read-out: IC50 versus tiNKF
metricName: pIC50
// returns pIC50 (minus log10 of molar concentration), number only

[
  {
    "compound": "CC(=O)N(C)C1(c2ccccc2)CCN(CCC[C@]2(c3ccc(Cl)c(Cl)c3)CCCN(C(=O)c3ccccc3)C2)CC1 [Osanetant]",
    "targetEntity": "tiTac3Ra (Oreochromis niloticus)",
    "pIC50": 3.91
  }
]

Now let's try a different one.
Annotate the compound CC[C@H](NC(=O)c1c(C)c(-c2ccccc2)nc2ccccc12)c1ccccc1 [SB-222200] with its measured pIC50. 4.43

---

targetEntity: tiTac3Ra (Oreochromis niloticus)
testProtocol: CRE-Luc antagonist assay, wild-type receptor, COS-7
Type: cell-based, tilapia (Oreochromis niloticus)
testSettings: 10 nM tiNKB, antagonist 0.001–1000 μM added 10 min before peptide, COS-7, CRE-Luc; read-out: IC50 versus tiNKB
metricName: pIC50
In plain terms, pIC50 is the concentration in mol/L turned into minus its base-10 logarithm.

[
  {
    "molecule": "CC(=O)N(C)C1(c2ccccc2)CCN(CCC[C@]2(c3ccc(Cl)c(Cl)c3)CCCN(C(=O)c3ccccc3)C2)CC1 [Osanetant]",
    "targetEntity": "tiTac3Ra (Oreochromis niloticus)",
    "endpointResult": 3.67
  }
]

Recall and state the measured pIC50 for CC[C@H](NC(=O)c1c(C)c(-c2ccccc2)nc2ccccc12)c1ccccc1 [SB-222200] . 4.08

---

targetEntity: native tilapia Tac3Ra (WT)
testProtocol: CRE-Luc receptor transactivation assay, wild-type receptor, COS-7
Type: cell-based, tilapia (Oreochromis niloticus)
testSettings: CRE-Luc, COS-7, 0.2–1000 nM; calculated when max effect >2.0
metricName: pEC50
// pEC50: -log10(molar conc.)

Quote pEC50 reported for pyroglutaminated [p]-EMDDIFIGLM-NH2 [tiNKB, native tilapia Neurokinin B peptide, synthesized by GL Biochem] please. 8.61
